- TESTED ON: EBP-Ig (N-terminal 225 amino acids of the human EPO receptor joined to an Ig heavy chain) (Homo sapiens, UniProt P19235)
- Construct: Ig heavy chain (fusion partner); made in house; host or cells: NSO cells (secreted into conditioned media)
- EXPERIMENT DESCRIPTION: Inhibition of [125I]EPO binding to immobilized EBP-Ig (EPO binding protein-Ig), scintillation Flash plate competition assay
- CONDITION SUMMARY: 50 μM compound; Table 16A
ASSAY METRIC: EPO/EBP-Ig % inh @ 50 μM (%)
All answers are understood in %, so give the number only.

Please look up its EPO/EBP-Ig % inh @ 50 μM: `COC(=O)[C@H](COC(C)(C)C)N(C/C=C/c1ccccc1)C/C=C/c1ccccc1`
21

Thanks! And `COC(=O)[C@H](COC(C)(C)C)N(C/C=C/c1cccc(Oc2cccc(C(F)(F)F)c2)c1)C/C=C/c1cccc(Oc2cccc(C(F)(F)F)c2)c1` ?
11

Thanks! And `CC(=O)O.COC(=O)[C@H](CO)N(C/C=C/c1cccc(Oc2cccc(C(F)(F)F)c2)c1)C/C=C/c1cccc(Oc2cccc(C(F)(F)F)c2)c1` ?
0

----------
Give inhibition at 50 µM for every item shown.
- TESTED ON: EBP-Ig (N-terminal 225 amino acids of the human EPO receptor joined to an Ig heavy chain) (Homo sapiens)
- Construct: Ig heavy chain (fusion partner); made in house; host or cells: NSO cells (secreted into conditioned media)
- EXPERIMENT DESCRIPTION: Inhibition of [125I]EPO binding to immobilized EBP-Ig (EPO binding protein-Ig), scintillation Flash plate competition assay
- CONDITION SUMMARY: read-out: EPO/EBP-Ig % inh @ 50 μM; Table 7; 50 μM
All answers are understood in %, so give the number only.

Please look up its inhibition at 50 µM: COC(=O)C(CCCCN)N(Cc1ccc(OCc2ccccc2)cc1)Cc1cccc([N+](=O)[O-])c1 (stereo not shown)
37

Thanks! And COC(=O)C(CCCCN)N(Cc1ccc(OCc2ccccc2)cc1)Cc1cccc(N)c1 (stereo not shown) ?
35

Thanks! And COC(=O)C(CCCCN)N(Cc1ccc(OCc2ccccc2)cc1)Cc1cccc(NC(=O)c2ccc(C)cc2)c1 (stereo not shown) ?
36

Thanks! And COC(=O)C(CCCCN)N(Cc1ccc(OCc2ccccc2)cc1)Cc1ccc(OCc2ccccc2)cc1 (stereo not shown) ?
54

----------
- TESTED ON: EBP-Ig (N-terminal 225 amino acids of the human EPO receptor joined to an Ig heavy chain) (Homo sapiens, UniProt P19235)
- Construct: Ig heavy chain (fusion partner); made in house; host or cells: NSO cells (secreted into conditioned media)
- EXPERIMENT DESCRIPTION: Inhibition of [125I]EPO binding to immobilized EBP-Ig (EPO binding protein-Ig), scintillation Flash plate competition assay
- CONDITION SUMMARY: 50 μM compound; Table 13
Give EPO/EBP-Ig % inh @ 50 μM for every item shown.
All answers are understood in %, so give the number only.

Please look up its EPO/EBP-Ig % inh @ 50 μM: CC(C)(C)OC(=O)NCCCCC(C(=O)NCCCOCCOCCOCCCNC(=O)C(CCCCNC(=O)OC(C)(C)C)N(Cc1ccc(OCc2ccccc2)cc1)Cc1ccc(OCc2ccccc2)cc1)N(Cc1ccc(OCc2ccccc2)cc1)Cc1ccc(OCc2ccccc2)cc1 (stereo not shown)
−26

Thanks! And CC(C)(CC(=O)O)CC(=O)NCCCCC(C(=O)NCCCOCCCCOCCCNC(=O)C(CCCCNC(=O)CC(C)(C)CC(=O)O)N(Cc1ccc(OCc2ccccc2)cc1)Cc1ccc(OCc2ccccc2)cc1)N(Cc1ccc(OCc2ccccc2)cc1)Cc1ccc(OCc2ccccc2)cc1 (stereo not shown) ?
83

Thanks! And CC(C)(C)OC(=O)NCCCCC(C(=O)NCCCOCCCCOCCCNC(=O)C(CCCCNC(=O)OC(C)(C)C)N(Cc1ccc(OCc2ccccc2)cc1)Cc1ccc(OCc2ccccc2)cc1)N(Cc1ccc(OCc2ccccc2)cc1)Cc1ccc(OCc2ccccc2)cc1 (stereo not shown) ?
−24

Thanks! And CC(C)(CC(=O)O)CC(=O)NCCCCC(C(=O)NCCOCCOCCNC(=O)C(CCCCNC(=O)CC(C)(C)CC(=O)O)N(Cc1ccc(OCc2ccccc2)cc1)Cc1ccc(OCc2ccccc2)cc1)N(Cc1ccc(OCc2ccccc2)cc1)Cc1ccc(OCc2ccccc2)cc1 (stereo not shown) ?
89

----------
Give IC30 μM (Inhibition of EPO binding to EBP-Ig) for every item shown.
- TESTED ON: EBP-Ig (N-terminal 225 amino acids of the human EPO receptor joined to an Ig heavy chain) (Homo sapiens, UniProt P19235)
- Construct: Ig heavy chain (fusion partner); made in house; host or cells: NSO cells (secreted into conditioned media)
- Sequence (P19235 25-250 limits assumed): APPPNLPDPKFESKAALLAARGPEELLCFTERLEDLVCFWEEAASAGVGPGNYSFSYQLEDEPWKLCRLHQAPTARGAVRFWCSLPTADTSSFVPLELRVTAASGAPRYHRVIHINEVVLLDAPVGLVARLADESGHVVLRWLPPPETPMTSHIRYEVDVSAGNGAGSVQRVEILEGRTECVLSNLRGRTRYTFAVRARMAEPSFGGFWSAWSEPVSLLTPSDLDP
- EXPERIMENT DESCRIPTION: Inhibition of [125I]EPO binding to immobilized EBP-Ig (EPO binding protein-Ig), scintillation Flash plate competition assay
- CONDITION SUMMARY: 0.5 nM [125I]EPO; 0–500 μM test compound
- Protocol: The interaction of biotin and streptavidin is frequently employed to capture and effectively immobilize reagents useful in assay protocols and has been employed here as a simple method to capture and immobilize EBP-Ig. […] The amount of light produced was quantified to estimate the amount of ligand binding. […] All wells were adjusted to a final DMSO concentration of 5%. […] Corrected total binding (CTB) was calculated as: TB−NSB=CTB. […]
All answers are understood in µM, so give the number only.

Please look up its IC30 μM (Inhibition of EPO binding to EBP-Ig): O=C(O)CC(C(=O)O)N(C/C=C/c1cccc(Oc2ccccc2)c1)Cc1cccc(Oc2ccccc2)c1 (centres unmarked) [compound 77]
30

Thanks! And O=C(O)CCCC(=O)NCCCCC(C(=O)NCCCOCCCCOCCCNC(=O)C(CCCCNC(=O)CCCC(=O)O)N(Cc1ccc(OCc2ccccc2)cc1)Cc1ccc(OCc2ccccc2)cc1)N(Cc1ccc(OCc2ccccc2)cc1)Cc1ccc(OCc2ccccc2)cc1 (centres unmarked) [compound 266] ?
1

Thanks! And Cc1ccc(S(=O)(=O)Nc2cccc(CN(Cc3cccc(Oc4ccccc4)c3)C(CCC(=O)O)C(=O)NCCOCCOCCNC(=O)C(CCC(=O)O)N(Cc3cccc(NS(=O)(=O)c4ccc(C)cc4)c3)Cc3cccc(Oc4ccccc4)c3)c2)cc1 (centres unmarked) [compound 250] ?
7

Thanks! And O=C(O)[C@H](CO)N(C/C=C/c1cccc(Oc2ccccc2)c1)C/C=C/c1cccc(Oc2ccccc2)c1 [cpd 300, N,N-Bis(3-phenoxycinnamyl)Ser-OH] ?
35

Thanks! And CCCCC(=O)Nc1cccc(CN(Cc2cccc(Oc3ccccc3)c2)C(CCC(=O)O)C(=O)NCCOCCOCCNC(=O)C(CCC(=O)O)N(Cc2cccc(NC(=O)CCCC)c2)Cc2cccc(Oc3ccccc3)c2)c1 (centres unmarked) [cpd 247] ?
7

----------
- TESTED ON: EBP-Ig (N-terminal 225 amino acids of the human EPO receptor joined to an Ig heavy chain) (Homo sapiens, UniProt P19235)
- Construct: Ig heavy chain (fusion partner); made in house; host or cells: NSO cells (secreted into conditioned media)
- Sequence (P19235 25-250 limits assumed): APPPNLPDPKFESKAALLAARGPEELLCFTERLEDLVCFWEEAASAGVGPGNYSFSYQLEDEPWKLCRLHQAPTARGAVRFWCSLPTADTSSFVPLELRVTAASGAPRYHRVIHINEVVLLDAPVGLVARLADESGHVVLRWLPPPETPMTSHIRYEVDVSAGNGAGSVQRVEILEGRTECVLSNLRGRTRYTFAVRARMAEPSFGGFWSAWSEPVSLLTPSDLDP
- EXPERIMENT DESCRIPTION: Inhibition of [125I]EPO binding to immobilized EBP-Ig (EPO binding protein-Ig), scintillation Flash plate competition assay
- CONDITION SUMMARY: 50 μM compound; Table 9
- Method: The interaction of biotin and streptavidin is frequently employed to capture and effectively immobilize reagents useful in assay protocols and has been employed here as a simple method to capture and immobilize EBP-Ig. […] The amount of light produced was quantified to estimate the amount of ligand binding. […] All wells were adjusted to a final DMSO concentration of 5%. […] Corrected total binding (CTB) was calculated as: TB−NSB=CTB. […]
Give EPO/EBP-Ig % inh @ 50 μM for every item shown.
All answers are understood in %, so give the number only.

Please look up its EPO/EBP-Ig % inh @ 50 μM: COC(=O)C(CCCCNC(=O)OC(C)(C)C)N(C/C=C/c1cccc(Oc2ccc(C(C)(C)C)cc2)c1)C/C=C/c1cccc(Oc2ccc(C(C)(C)C)cc2)c1 (stereo not shown) [compound 181]
−9

Thanks! And COC(=O)C(CCCCN)N(C/C=C/c1cccc(Oc2ccc(C(C)(C)C)cc2)c1)C/C=C/c1cccc(Oc2ccc(C(C)(C)C)cc2)c1 (stereo not shown) [compound 182] ?
18

Thanks! And COC(=O)C(CCCCNC(=O)OC(C)(C)C)N(C/C=C/c1ccc([N+](=O)[O-])cc1)C/C=C/c1ccc([N+](=O)[O-])cc1 (stereo not shown) [compound 178] ?
36

Thanks! And COC(=O)C(CCCCNC(=O)OC(C)(C)C)N(C/C=C/c1cccc(Oc2ccccc2)c1)C/C=C/c1cccc(Oc2ccccc2)c1 (stereo not shown) [compound 180] ?
−4

Thanks! And COC(=O)C(CCCCN)N(C/C=C/c1cccc(N)c1)C/C=C/c1cccc(N)c1 (stereo not shown) [compound 185] ?
29

Thanks! And COC(=O)C(CCCCNC(=O)OCc1ccccc1)N(C/C=C/c1cccc(Oc2ccccc2)c1)C/C=C/c1cccc(Oc2ccccc2)c1 (stereo not shown) [compound 176] ?
−4
